Below, each entry is listed with its recorded pKi.
Biological target: wild-type mature Smac protein
Assay: Fluorescence polarization competition assay, mature Smac protein
Type: binding, human
Conditions: competition with 5 nM Hid-FAM probe, Ki from IC50
pKi: −log10 of the molar value.

>  <MOLECULE>
ML-IAP-BIR: wild-type ML-IAP BIR domain construct, amino acids 63–179 of accession number BIR7_HUMAN (protein, left off: small tags and cut ends) TEEEEEEGAGATLSRGPAFPGMGSEELRLASFYDWPLTAEVPPELLAAAGFFHTGHQDKVRCFFCYGGLQSWKRGDDPWTEHAKWFPSCQFLLRSKGRDFVHSVQETHSQLLGSWDP

>  <pKi>
7.59

$$$$
>  <MOLECULE>
XIAP-BIR3: third BIR domain of XIAP (residues 252–348) (protein, left off: small tags and cut ends) NSTNLPRNPSMADYEARIFTFGTWIYSVNKEQLARAGFYALGEGDKVKCFHCGGGLTDWKPSEDPWEQHAKWYPGCKYLLEQKGQEYINNIHLTHSL

>  <pKi>
6.49

$$$$
>  <MOLECULE>
MLBIR-Q: C-terminally truncated version of ML-IAP-BIR with the same number of amino acids as MLXBIR3 and MLXBIR3SG (protein, left off: small tags and cut ends) TEEEEEEGAGATLSRGPAFPGMGSEELRLASFYDWPLTAEVPPELLAAAGFFHTGHQDKVRCFFCYGGLQSWKRGDDPWTEHAKWFPSCQFLLRSKGRDFVHSVQETHSQ

>  <pKi>
7.27

$$$$
>  <MOLECULE>
MLXBIR3SG: MLXBIR3 chimera with Ser 150 of ML-IAP-BIR mutated to Gly (SEQ ID NO:2) (protein, Homo sapien) MGSSHHHHHHSSGLVPRGSHMLETEEEEEEGAGATLSRGPAFPGMGSEELRLASFYDWPLTAEVPPELLAAAGFFHTGHQDKVRCFFCYGGLQSWKRGDDPWTEHAKWFPGCQFLLRSKGQEYINNIHLTHSL

>  <pKi>
7.23

$$$$
